src = paper PMC8327296

Biological target: A1R, rat brain membranes (forebrain) (Rattus norvegicus)
Sequence (P25099 1-326): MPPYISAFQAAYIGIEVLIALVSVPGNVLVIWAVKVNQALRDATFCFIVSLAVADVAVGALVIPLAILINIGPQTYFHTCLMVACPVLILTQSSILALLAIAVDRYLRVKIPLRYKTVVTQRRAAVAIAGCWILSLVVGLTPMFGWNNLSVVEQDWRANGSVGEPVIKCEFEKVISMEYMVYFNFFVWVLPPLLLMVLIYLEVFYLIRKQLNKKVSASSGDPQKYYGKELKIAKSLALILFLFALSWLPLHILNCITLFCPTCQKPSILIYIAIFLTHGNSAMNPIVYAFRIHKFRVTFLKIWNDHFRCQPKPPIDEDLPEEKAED
readout_type: Ki (nM)
Field format: number, assumed nM, no unit text.

Query: Provide one value: measured Ki of COc1cccc(-c2c(C#N)c(N)nc(SCc3cccc(C)n3)c2C#N)c1 [22b]
Result: 0.21

###

Target: UniProt P30543
Sequence (P30543 whole entry): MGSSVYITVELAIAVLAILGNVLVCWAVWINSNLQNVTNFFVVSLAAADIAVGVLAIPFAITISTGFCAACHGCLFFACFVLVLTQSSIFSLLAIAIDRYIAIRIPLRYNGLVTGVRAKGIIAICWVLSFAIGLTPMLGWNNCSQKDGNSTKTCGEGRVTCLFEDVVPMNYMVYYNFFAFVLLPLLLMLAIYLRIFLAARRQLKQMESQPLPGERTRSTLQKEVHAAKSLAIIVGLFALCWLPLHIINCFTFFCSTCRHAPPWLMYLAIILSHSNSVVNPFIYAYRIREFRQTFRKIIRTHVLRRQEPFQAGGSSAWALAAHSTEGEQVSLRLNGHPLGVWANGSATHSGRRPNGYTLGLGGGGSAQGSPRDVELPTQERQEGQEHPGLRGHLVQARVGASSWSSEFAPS
readout_type: pKi
Just the number, please; pKi means minus log10 of the concentration in mol/L.

Query: Provide one value: measured pKi of COc1cccc(-c2c(C#N)c(N)nc(SCc3cccc(C)n3)c2C#N)c1 [22b]
Result: 7.28

###

Molecular target: recombinant A2AR (human) (Homo sapiens, UniProt P29274)
Sequence (P29274 whole entry): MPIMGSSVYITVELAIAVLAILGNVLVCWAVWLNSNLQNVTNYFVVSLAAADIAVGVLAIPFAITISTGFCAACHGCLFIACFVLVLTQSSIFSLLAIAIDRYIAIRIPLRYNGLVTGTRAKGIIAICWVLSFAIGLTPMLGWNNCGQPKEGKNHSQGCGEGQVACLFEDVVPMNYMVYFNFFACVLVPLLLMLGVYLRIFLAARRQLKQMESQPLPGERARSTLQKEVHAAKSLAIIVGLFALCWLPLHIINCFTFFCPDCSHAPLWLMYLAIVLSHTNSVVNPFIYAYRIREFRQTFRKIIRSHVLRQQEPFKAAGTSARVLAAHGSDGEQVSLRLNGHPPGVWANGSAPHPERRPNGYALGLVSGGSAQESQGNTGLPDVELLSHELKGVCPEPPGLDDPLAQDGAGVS
Experiment: Competition radioligand binding, human A2AR
pKi: −log10 of the molar value.
Note to self: values exactly at 7 are YES. So pKi at or above 7 is YES, below is NO.

Query: Is pKi at least 7? Consider COc1cccc(-c2nc(SCc3ncc[nH]3)nc(N)c2C#N)c1 [21d]
Result: NO

Query: Is pKi at least 7? Consider Cc1cccc(CSc2nc(N)c(C#N)c(-c3cccc(O)c3)c2C#N)n1 [22e]
Result: YES

Query: Is pKi at least 7? Consider COc1ccc(-c2c(C#N)c(N)nc(SCc3cccc(C)n3)c2C#N)cc1 [22a]
Result: YES

Query: Is pKi at least 7? Consider CC(=O)Nc1ccc(-c2c(C#N)c(N)nc(SCc3cccc(C)n3)c2C#N)cc1 [22g]
Result: YES

###

Please consider the recorded log10 of Ki for UniProtKB P30542 in what follows.
Sequence (P30542 whole entry): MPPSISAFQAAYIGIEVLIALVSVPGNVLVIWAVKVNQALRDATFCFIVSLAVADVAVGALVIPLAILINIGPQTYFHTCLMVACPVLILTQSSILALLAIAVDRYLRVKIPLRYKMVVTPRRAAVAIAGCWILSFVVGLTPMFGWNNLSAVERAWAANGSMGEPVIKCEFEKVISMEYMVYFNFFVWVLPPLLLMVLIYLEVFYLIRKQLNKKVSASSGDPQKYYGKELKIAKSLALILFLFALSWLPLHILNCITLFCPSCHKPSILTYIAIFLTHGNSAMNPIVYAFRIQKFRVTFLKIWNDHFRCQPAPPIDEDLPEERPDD
Kindly note that the scale is log10 and the underlying Ki is in µM.

Query: Provide one value: measured log10 of Ki of COc1ccc(-c2c(C#N)c(N)nc(SCc3cccc(C)n3)c2C#N)cc1 [22a]
Result: -2.54

Query: Provide one value: measured log10 of Ki of COc1ccc(-c2nc(SCc3ncc[nH]3)nc(N)c2C#N)cc1 [21c]
Result: -0.51

Query: Provide one value: measured log10 of Ki of Cc1cccc(CSc2nc(N)c(C#N)c(-c3cccc(O)c3)c2C#N)n1 [22e]
Result: -2.46

Query: Provide one value: measured log10 of Ki of COc1cccc(-c2nc(SCc3ncc[nH]3)nc(N)c2C#N)c1 [21d]
Result: -1.32

Query: Provide one value: measured log10 of Ki of CC(=O)Nc1ccc(-c2c(C#N)c(N)nc(SCc3cccc(C)n3)c2C#N)cc1 [22g]
Result: -1.28

Query: Provide one value: measured log10 of Ki of COc1cccc(-c2nc(SCc3cccc(C)n3)nc(N)c2C#N)c1 [21b]
Result: -2.14

Query: Provide one value: measured log10 of Ki of Cc1cccc(CSc2nc(N)c(C#N)c(-c3cccc(O)c3)n2)n1 [21e]
Result: -1.74

Query: Provide one value: measured log10 of Ki of N#Cc1c(N)nc(SCc2ncc[nH]2)nc1-c1cccc(O)c1 [21f]
Result: -0.96

Query: Provide one value: measured log10 of Ki of COc1cccc(-c2c(C#N)c(N)nc(SCc3cccc(C)n3)c2C#N)c1 [22b]
Result: -3.31

Query: Provide one value: measured log10 of Ki of COc1ccc(-c2nc(SCc3cccc(C)n3)nc(N)c2C#N)cc1 [21a]
Result: -1.54
